This collection of values is drawn from the OligoGym collection.

# measurement conditions: siRNA; further: test system not given here
HELM strings list units from the 5' end as sugar, base in round brackets, then linkage (d deoxyribose, r ribose, m 2'-O-methyl, p phosphodiester). Strings are as the collection lists them, not checked against the first reports. ss, as = sense and antisense strand; [s4r] = 4'-thioribose; [fl2r] = 2'-fluoro
target mRNA knockdown values by entry
measure name: target mRNA knockdown (%)

- RNA1{[fl2r](G)p.r(C)p.[fl2r](C)p.r(U)p.[fl2r](C)p.r(U)p.[fl2r](C)p.r(U)p.[fl2r](A)p.r(U)p.[fl2r](C)p.r(C)p.[fl2r](U)p.r(U)p.[fl2r](A)p.r(G)p.[fl2r](C)p.r(U)p.r(U)p.r(T)p.r(T)}|RNA2{r(A)p.r(A)p.r(G)p.r(C)p.r(U)p.r(A)p.[fl2r](A)p.r(G)p.r(G)p.r(A)p.r(U)p.[fl2r](A)p.r(G)p.r(A)p.r(G)p.r(A)p.r(G)p.r(G)p.r(C)p.r(T)p.r(T)}$$$RNA1{StrandType:ss}|RNA2{StrandType:as}$: 34
- RNA1{[s4r](C)p.[s4r](G)p.r(U)p.r(A)p.r(C)p.r(G)p.r(C)p.r(G)p.r(G)p.r(A)p.r(A)p.r(U)p.r(A)p.r(C)p.r(U)p.r(U)p.r(C)p.[s4r](G)p.[s4r](A)p.r(T)p.r(T)}|RNA2{[s4r](U)p.[s4r](C)p.r(G)p.r(A)p.r(A)p.r(G)p.r(U)p.r(A)p.r(U)p.r(U)p.r(C)p.r(C)p.r(G)p.r(C)p.r(G)p.r(U)p.r(A)p.[s4r](C)p.[s4r](G)p.r(T)p.r(T)}$$$RNA1{StrandType:ss}|RNA2{StrandType:as}$: 85.3

====

# measurement conditions: siRNA
HELM strings list units from the 5' end as sugar, base in round brackets, then linkage (d deoxyribose, r ribose, m 2'-O-methyl, p phosphodiester). Strings are as the collection lists them, not checked against the first reports. ss, as = sense and antisense strand; [fl2r] = 2'-fluoro
// boundary case: target mRNA knockdown equal to 70% maps to no (0); strictly smaller maps to yes (1)

• RNA1{r(A)p.r(G)p.r(C)p.r(C)p.r(U)p.r(C)p.[fl2r](C)p.r(A)p.r(A)p.r(A)p.r(C)p.r(U)p.r(C)p.r(C)p.[fl2r](U)p.r(A)p.r(G)p.r(C)p.r(U)p.r(T)p.r(T)}|RNA2{r(A)p.r(G)p.r(C)p.r(U)p.r(A)p.r(G)p.r(G)p.r(A)p.r(G)p.r(U)p.r(U)p.r(U)p.r(G)p.r(G)p.r(A)p.r(G)p.r(G)p.r(C)p.r(U)p.r(T)p.r(T)}$$$RNA1{StrandType:ss}|RNA2{StrandType:as}$ = yes (1)
• RNA1{r(A)p.r(G)p.r(U)p.r(U)p.r(U)p.r(C)p.[fl2r](U)p.[fl2r](A)p.r(G)p.r(G)p.r(G)p.r(C)p.r(C)p.r(G)p.r(U)p.r(G)p.r(G)p.r(C)p.r(C)p.r(T)p.r(T)}|RNA2{r(G)p.r(G)p.r(C)p.r(C)p.r(A)p.r(C)p.r(G)p.r(G)p.r(C)p.r(C)p.r(C)p.[fl2r](U)p.r(A)p.r(G)p.r(A)p.r(A)p.r(A)p.r(C)p.r(U)p.r(T)p.r(T)}$$$RNA1{StrandType:ss}|RNA2{StrandType:as}$ = no (0)
• RNA1{r(A)p.r(G)p.r(A)p.r(A)p.r(A)p.r(C)p.r(G)p.r(C)p.r(A)p.r(G)p.m(U)p.r(A)p.r(A)p.r(U)p.r(C)p.r(C)p.r(G)p.r(G)p.r(A)p.r(T)p.r(T)}|RNA2{r(U)p.r(C)p.r(C)p.r(G)p.r(G)p.r(A)p.r(U)p.r(U)p.r(A)p.r(C)p.m(U)p.r(G)p.r(C)p.r(G)p.r(U)p.r(U)p.r(U)p.r(C)p.r(U)p.r(T)p.r(T)}$$$RNA1{StrandType:ss}|RNA2{StrandType:as}$ = no (0)
• RNA1{[fl2r](A)p.r(G)p.[fl2r](U)p.r(U)p.[fl2r](A)p.r(A)p.[fl2r](C)p.r(C)p.[fl2r](C)p.r(G)p.[fl2r](G)p.r(G)p.[fl2r](A)p.r(C)p.[fl2r](U)p.r(U)p.[fl2r](G)p.r(G)p.[fl2r](A)p.r(T)p.r(T)}|RNA2{r(U)p.r(C)p.r(C)p.r(A)p.r(A)p.r(G)p.r(U)p.r(C)p.r(C)p.r(C)p.r(G)p.r(G)p.r(G)p.r(U)p.r(U)p.r(A)p.r(A)p.r(C)p.r(U)p.r(T)p.r(T)}$$$RNA1{StrandType:ss}|RNA2{StrandType:as}$ = yes (1)
• RNA1{r(A)p.r(U)p.m(C)p.r(A)p.m(C)p.r(A)p.r(A)p.r(A)p.r(C)p.r(C)p.r(C)p.r(C)p.m(U)p.r(A)p.r(G)p.r(A)p.r(G)p.r(G)p.r(G)p.r(T)p.r(T)}|RNA2{r(C)p.r(C)p.r(C)p.r(U)p.r(C)p.m(U)p.r(A)p.r(G)p.r(G)p.r(G)p.r(G)p.r(U)p.r(U)p.m(U)p.r(G)p.m(U)p.r(G)p.r(A)p.r(U)p.r(T)p.r(T)}$$$RNA1{StrandType:ss}|RNA2{StrandType:as}$ = no (0)
• RNA1{m(U)p.r(U)p.m(G)p.r(G)p.m(G)p.r(G)p.m(A)p.r(A)p.m(G)p.r(C)p.m(G)p.r(G)p.m(C)p.r(C)p.m(G)p.r(G)p.m(C)p.r(G)p.m(G)p.r(T)p.r(T)}|RNA2{r(C)p.r(C)p.r(G)p.r(C)p.r(C)p.r(G)p.r(G)p.r(C)p.r(C)p.r(G)p.r(C)p.r(U)p.r(U)p.r(C)p.r(C)p.r(C)p.r(C)p.m(A)p.m(A)p.r(T)p.r(T)}$$$RNA1{StrandType:ss}|RNA2{StrandType:as}$ = yes (1)

====

# measurement conditions: siRNA
HELM strings list units from the 5' end as sugar, base in round brackets, then linkage (d deoxyribose, r ribose, m 2'-O-methyl, p phosphodiester). Strings are as the collection lists them, not checked against the first reports. ss, as = sense and antisense strand; [fl2r] = 2'-fluoro
Quick list: target mRNA knockdown per entry.
measure name: target mRNA knockdown (%)

• RNA1{r(U)p.r(C)p.r(C)p.r(G)p.r(G)p.r(C)p.[fl2r](U)p.r(A)p.r(A)p.r(C)p.r(U)p.r(C)p.[fl2r](U)p.r(G)p.r(A)p.r(G)p.r(G)p.r(A)p.r(C)p.r(T)p.r(T)}|RNA2{r(G)p.r(U)p.r(C)p.r(C)p.r(U)p.[fl2r](C)p.r(A)p.r(G)p.r(A)p.r(G)p.r(U)p.r(U)p.r(A)p.r(G)p.r(C)p.r(C)p.[fl2r](G)p.r(G)p.r(A)p.r(T)p.r(T)}$$$RNA1{StrandType:ss}|RNA2{StrandType:as}$ = 85
• RNA1{m(U)p.r(A)p.r(A)p.r(A)p.r(C)p.r(U)p.r(U)p.m(U)p.r(G)p.r(G)p.r(G)p.r(G)p.r(A)p.r(A)p.r(G)p.r(G)p.r(G)p.r(A)p.r(G)p.r(T)p.r(T)}|RNA2{r(C)p.r(U)p.r(C)p.r(C)p.r(C)p.r(U)p.r(U)p.r(C)p.r(C)p.r(C)p.m(C)p.r(A)p.r(A)p.r(A)p.r(G)p.r(U)p.r(U)p.m(U)p.r(A)p.r(T)p.r(T)}$$$RNA1{StrandType:ss}|RNA2{StrandType:as}$ = 67
• RNA1{r(A)p.r(A)p.r(G)p.[fl2r](U)p.r(A)p.r(G)p.r(U)p.r(C)p.r(C)p.r(C)p.[fl2r](C)p.r(C)p.r(U)p.[fl2r](U)p.r(G)p.r(A)p.r(A)p.r(G)p.r(A)p.r(T)p.r(T)}|RNA2{r(U)p.r(C)p.r(U)p.r(U)p.[fl2r](C)p.r(A)p.r(A)p.r(G)p.r(G)p.r(G)p.r(G)p.r(G)p.r(A)p.r(C)p.[fl2r](U)p.r(A)p.r(C)p.r(U)p.r(U)p.r(T)p.r(T)}$$$RNA1{StrandType:ss}|RNA2{StrandType:as}$ = 64
• RNA1{m(A)p.r(G)p.m(A)p.r(A)p.m(A)p.r(C)p.m(G)p.r(C)p.m(A)p.r(G)p.m(U)p.r(A)p.m(A)p.r(U)p.m(C)p.r(C)p.m(G)p.r(G)p.m(A)p.r(T)p.r(T)}|RNA2{r(U)p.r(C)p.r(C)p.m(G)p.m(G)p.r(A)p.r(U)p.r(U)p.r(A)p.r(C)p.r(U)p.m(G)p.r(C)p.m(G)p.r(U)p.r(U)p.r(U)p.r(C)p.r(U)p.r(T)p.r(T)}$$$RNA1{StrandType:ss}|RNA2{StrandType:as}$ = 36
• RNA1{r(C)p.r(U)p.r(C)p.r(U)p.r(G)p.r(G)p.r(C)p.r(C)p.r(U)p.r(U)p.r(U)p.r(C)p.r(U)p.r(C)p.r(U)p.r(C)p.m(U)p.r(A)p.r(G)p.r(T)p.r(T)}|RNA2{r(C)p.r(U)p.r(A)p.r(G)p.r(A)p.r(G)p.r(A)p.r(G)p.r(A)p.r(A)p.r(A)p.r(G)p.r(G)p.r(C)p.r(C)p.r(A)p.r(G)p.r(A)p.r(G)p.r(T)p.r(T)}$$$RNA1{StrandType:ss}|RNA2{StrandType:as}$ = 47
